# credit: patent US7153849B2

# Lookup of reported 5HT1A Function Imax keyed by entry
Biological target: cloned human 5HT1A receptors (Homo sapiens)
Construct: expressed in transfected cells
Sequence (P08908 whole entry): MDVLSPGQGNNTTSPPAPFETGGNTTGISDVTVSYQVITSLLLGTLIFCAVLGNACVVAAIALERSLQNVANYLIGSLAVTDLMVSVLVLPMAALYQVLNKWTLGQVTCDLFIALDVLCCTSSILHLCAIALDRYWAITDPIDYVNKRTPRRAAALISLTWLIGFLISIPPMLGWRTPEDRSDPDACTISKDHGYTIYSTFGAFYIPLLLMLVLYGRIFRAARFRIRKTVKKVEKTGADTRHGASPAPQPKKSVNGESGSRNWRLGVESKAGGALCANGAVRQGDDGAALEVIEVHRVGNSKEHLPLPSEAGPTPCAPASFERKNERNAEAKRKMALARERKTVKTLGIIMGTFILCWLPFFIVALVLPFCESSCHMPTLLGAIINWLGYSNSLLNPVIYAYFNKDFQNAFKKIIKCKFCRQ
Assay: 35S-GTPγS binding assay, 5HT1A antagonist activity
Format: biochemical
Settings: maximum inhibitory effect, vs 8-OH-DPAT, unit assumed
Description: Antagonist activity at 5HT1A receptors was established by using a ^35S-GTPγS binding assay similar to that used by Lazareno and Birdsall (Br. J. Pharmacol. 109:1120, 1993), in which the test compound's ability to affect the binding of ^35S-GTPγS to membranes containing cloned human 5HT1A receptors was determined. Agonists produce an increase in binding whereas antagonists produce no increase but rather reverse the effects of the standard agonist 8-OH-DPAT. […]
Value expressed in %; do not type the unit.

The cases that follow already have their 5HT1A Function Imax on record.
{"Cpd Smiles": "COc1ccc(N2CCN(C[C@H]3COc4ccc5nc(C)ccc5c4O3)CC2)cc1", "Assay System": "cloned human 5HT1A receptors (Homo sapiens)", "Assay Value": 37}
{"Cpd Smiles": "N#Cc1ccc2nc(N3CCN(C[C@H]4COc5ccc6ncccc6c5O4)CC3)ccc2c1", "Assay System": "cloned human 5HT1A receptors (Homo sapiens)", "Assay Value": 58}
{"Cpd Smiles": "Cc1ccc2c3c(ccc2n1)OC[C@H](CN1CCN(c2ccc4cc(Cl)ccc4n2)CC1)O3", "Assay System": "cloned human 5HT1A receptors (Homo sapiens)", "Assay Value": 58}
{"Cpd Smiles": "Cc1ccc2c3c(ccc2n1)OC[C@H](CN1CCN(c2ccc4ccccc4n2)CC1)O3", "Assay System": "cloned human 5HT1A receptors (Homo sapiens)", "Assay Value": 100}
{"Cpd Smiles": "Cc1ccc2c3c(ccc2n1)OC[C@H](CN1CCN(c2ccc4cc(C(N)=O)ccc4n2)CC1)O3", "Assay System": "cloned human 5HT1A receptors (Homo sapiens)", "Assay Value": 71}

Please give measured 5HT1A Function Imax of the following entry: Cc1ccc2c3c(ccc2n1)OC[C@H](CN1CCN(c2cccc(C(F)(F)F)c2)CC1)O3
100

Please give measured 5HT1A Function Imax of the following entry: Cc1ccc2c3c(ccc2n1)OC[C@H](CN1CCNCC1)O3
100

Please give measured 5HT1A Function Imax of the following entry: Cc1ccc2c3c(ccc2n1)OC[C@H](CN1CCN(c2cccc(Cl)c2)CC1)O3
100
